The values you see were collected from ChEMBL document CHEMBL3526010.

- Tested on: Plasma
- assay_overview: AUC (0 to t) in human plasma treated with 60 mg, po of [14C]edoxaban by LC-MS/MS analysis
- Type: ADME, organism-based
- condition_label: in vivo
measurement_label: AUCt

Solved cases (3 shown):
{"compound": "CNC(=O)[C@H]1CC[C@H](NC(=O)C(=O)Nc2ccc(Cl)cn2)[C@H](NC(=O)c2nc3c(s2)CN(C)CC3)C1 (stereo in doubt; M8)", "AUCt": "3.5 ng·h/mL"}
{"compound": "CN(C)C(=O)[C@H]1CC[C@H](NC(=O)C(=O)Nc2ccc(Cl)cn2)[C@H](NC(=O)c2nc3c(s2)CNCC3)C1", "AUCt": "55.1 ng·h/mL"}
{"compound": "CN1CCc2nc(C(=O)N[C@@H]3C[C@@H](C(=O)O)CC[C@@H]3NC(=O)C(=O)Nc3ccc(Cl)cn3)sc2C1", "AUCt": "145.5 ng·h/mL"}

From here, focus on the item given below.
Report AUCt for CN1CCc2nc(C(=O)N[C@@H]3C[C@@H](C(=O)N(C)C)CC[C@@H]3NC(=O)C(=O)O)sc2C1 94.7 ng·h/mL
